target: ABL1-N-HiBiT kinase domain (Homo sapiens, UniProt P00519); assay: ABL1 peptide phosphorylation, Kinase-Glo Plus (KGP) assay, ABL1-N-HiBiT; format: biochemical; parameters: containing amino acid residues Asp233-Ser500; His10 (N); made in house; host or cells: E. coli BL21(DE3); conditions: ABL1-N-HiBiT qHTS; average; unit inferred; read-out: ABL1 KGP Ave IC50
Sequence (P00519 233-500): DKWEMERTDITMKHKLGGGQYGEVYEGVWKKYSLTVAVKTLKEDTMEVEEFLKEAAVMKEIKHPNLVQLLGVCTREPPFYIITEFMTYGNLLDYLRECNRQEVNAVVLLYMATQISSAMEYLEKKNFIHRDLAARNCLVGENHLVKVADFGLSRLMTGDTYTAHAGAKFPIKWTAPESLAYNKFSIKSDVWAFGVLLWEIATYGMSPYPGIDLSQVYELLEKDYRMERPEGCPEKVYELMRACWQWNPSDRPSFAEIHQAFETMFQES
pIC50: −log10 of the molar value.
Catalogue of compounds with associated pIC50

- compound: "Cc1nc(NC(=O)N2CCC[C@H]2C(N)=O)sc1-c1ccnc(C(C)(C)C(F)(F)F)c1 [BYL-719]"
  pIC50: 4.87
- compound: "COc1cc2ncnc(Oc3cccc(NC(=O)Nc4cc(C(C)(C)C(F)(F)F)on4)c3)c2cc1OC [CEP-32496]"
  pIC50: 5.59
- compound: "CC[C@@](C)(Nc1ccnc(-c2c[nH]c3ncccc23)n1)C(=O)NCC(F)(F)F [Decernotinib]"
  pIC50: 5.13
- compound: "c1ccc2c(-c3cnn4cc(-c5ccc(N6CCNCC6)cc5)cnc34)ccnc2c1 [LDN-193189]"
  pIC50: 6.18

###

target: PKA-N-HiBiT (Homo sapiens); assay: PKA peptide phosphorylation, Kinase-Glo Plus (KGP) assay, PKA-N-HiBiT; type: biochemical; design: containing amino acids Gly2-Phe351; His10 (N); made in house; host or cells: E. coli BL21(DE3); settings: Figure 2i correlation plot data; read-out: ABL1 Enz Assay Mean (PKA KGP assay pIC50) (converted)
Where a name gives a salt, the structure may show the parent alone.
Catalogue of compounds with associated log10(IC50)
quantityKind: log10(IC50) (log10 of the value in µM)

- compound: "c1cc(-c2cc(C3CCNCC3)[nH]n2)ccn1 [ETP 45835 2HCl]"
  log10(IC50): 1.92
- compound: "Cn1cc(-c2[nH]c3cc(NC(=O)[C@H](N)C4CCCCC4)cc4c3c2C=NNC4=O)cn1 [PF-477736]"
  log10(IC50): 0.65
- compound: "N[C@H]1CC[C@H](Nc2nc(Nc3ccc(C(=O)N4CCCCC4)cc3)c3ncn(-c4cccc(F)c4)c3n2)CC1 [Purfalcamine]"
  log10(IC50): 1.36
- compound: "CN(c1ncccc1CNc1nc(Nc2ccc3c(c2)CC(=O)N3)ncc1C(F)(F)F)[S+](C)(=O)[O-] [PF-562271 HCl]"
  log10(IC50): 1.65
- compound: "COc1cc(N2CCOCC2)ccc1Nc1ncc(Cl)c(Nc2ccccc2NS(C)(=O)=O)n1 [CZC 54252 HCl]"
  log10(IC50): 1.53

###

target: FLuc-C-NLuc (firefly luciferase) (Photinus pyralis, UniProt P08659, form not given/L550V); experiment: SDR assay, FLuc-C-NLuc; conditions: Log[Compound], M -4.96; 10 mM ATP
Sequence (P08659 2-550 L550V, form open): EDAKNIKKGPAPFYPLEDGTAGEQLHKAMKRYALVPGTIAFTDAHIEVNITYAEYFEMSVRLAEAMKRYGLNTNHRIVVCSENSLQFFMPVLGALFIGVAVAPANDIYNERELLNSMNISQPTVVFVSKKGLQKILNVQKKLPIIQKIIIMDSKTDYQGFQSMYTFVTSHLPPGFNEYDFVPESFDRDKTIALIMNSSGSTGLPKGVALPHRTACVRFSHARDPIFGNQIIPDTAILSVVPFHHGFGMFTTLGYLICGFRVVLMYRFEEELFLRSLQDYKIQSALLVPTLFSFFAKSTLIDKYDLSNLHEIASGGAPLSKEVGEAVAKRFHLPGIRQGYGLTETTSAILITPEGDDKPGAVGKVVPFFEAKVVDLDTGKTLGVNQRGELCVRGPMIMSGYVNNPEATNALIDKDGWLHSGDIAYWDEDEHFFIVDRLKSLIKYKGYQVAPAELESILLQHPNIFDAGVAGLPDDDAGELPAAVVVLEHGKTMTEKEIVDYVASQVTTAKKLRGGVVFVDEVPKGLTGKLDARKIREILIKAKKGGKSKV

- compound: "O=C(Nc1cccc(F)c1)C1CCN(C(=O)c2ncn3c2COC(c2ccccc2)C3)CC1 (centres unmarked)"
  SDR+ATP: 66.41
- compound: "CC(NC(=O)C1CCN(C(=O)c2ncn3c2COC(c2ccc(F)cc2)C3)CC1)c1ccc(F)cc1 (centres unmarked)"
  SDR+ATP: 3.92
- compound: "CC(CNC(=O)C1CCN(C(=O)c2ncn3c2COC(c2ccccc2)C3)CC1)c1ccccc1 (centres unmarked)"
  SDR+ATP: 61.30
- compound: "CC1CCC(NC(=O)C2CCN(C(=O)c3ncn4c3COC(c3ccc(Cl)cc3)C4)CC2)CC1 (centres unmarked)"
  SDR+ATP: 2.52
- compound: "COc1ccc(NC(=O)C2CCN(C(=O)c3ncn4c3COC(c3ccccc3)C4)CC2)cc1Cl (centres unmarked)"
  SDR+ATP: 70.92
